The values you see were collected from ChEMBL document CHEMBL1140941.

method: Half life in CD rat at 3 mg/kg, po
Assay type: ADME, organism-based
Parameters: dose 3 mg/kg, route oral
measurementSetup: in vivo
readout: half-life

# compound, readout, testValue
data = [
    ("CC(C)OC(=O)C1=CN(C(=O)c2ccc(F)c(F)c2)CC(C)(C)c2c1[nH]c1ccccc21 [TUROFEXORATE ISOPROPYL]", "half-life", "24.6 h"),
]

* * *

method: Volume of distribution in CD rat at 3 mg/kg, iv
Type: ADME, organism-based
Set-up: dose 3 mg/kg, route intravenous
measurementSetup: in vivo, read-out: Vdss

# compound, Vd
rows = [
    ("CC(C)OC(=O)C1=CN(C(=O)c2ccc(F)c(F)c2)CC(C)(C)c2c1[nH]c1ccccc21 [TUROFEXORATE ISOPROPYL]", "3.3 L/kg"),
]

* * *

Parameter: Efficacy. Scope: all listed entries.
assayedSystem: UniProt Q96RI1
Sequence (Q96RI1 whole entry): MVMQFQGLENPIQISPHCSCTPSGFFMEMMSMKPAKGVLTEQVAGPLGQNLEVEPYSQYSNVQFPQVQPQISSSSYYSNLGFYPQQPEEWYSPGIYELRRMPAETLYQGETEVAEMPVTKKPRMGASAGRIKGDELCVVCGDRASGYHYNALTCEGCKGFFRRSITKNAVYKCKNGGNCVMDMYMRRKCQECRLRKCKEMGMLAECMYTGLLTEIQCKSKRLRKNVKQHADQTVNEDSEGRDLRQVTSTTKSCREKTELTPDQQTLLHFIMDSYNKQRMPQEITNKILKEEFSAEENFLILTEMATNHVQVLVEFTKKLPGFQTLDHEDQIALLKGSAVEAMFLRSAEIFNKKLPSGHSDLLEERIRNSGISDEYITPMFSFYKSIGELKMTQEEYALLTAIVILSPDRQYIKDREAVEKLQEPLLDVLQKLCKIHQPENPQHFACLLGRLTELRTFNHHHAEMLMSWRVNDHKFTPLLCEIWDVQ
method: Agonist activity at human FXR expressed in african green monkey CV1 cells co-expressing ECRE with RXR co-factor up to 10 uM by luciferase reporter gene assay relative to CDCA
Type: functional, cell-based
measurementSetup: CV-1

# compound, unitsLabel, Efficacy
measured = [
    ("CCCCOC(=O)C1=CN(C(=O)c2ccc(F)cc2)CCc2c1[nH]c1ccccc21", "%", 109),
    ("CCOC(=O)C1=CN(C(=O)c2ccc(F)cc2)CC(C)(C)c2c1[nH]c1ccccc21", "%", 148),
    ("CCOC(=O)C1=CN(C(=O)c2ccc(OC)cc2)CC(C)(C)c2c1[nH]c1ccccc21", "%", 139),
    ("CCOC(=O)C1=CN(C(=O)c2ccc(F)c(F)c2)CC(C)(C)c2c1[nH]c1ccccc21", "%", 144),
    ("CC(C)OC(=O)C1=CN(C(=O)c2ccc(F)cc2)CCc2c1[nH]c1ccccc21", "%", 120),
    ("CCCOC(=O)C1=CN(C(=O)c2ccc(F)cc2)CCc2c1[nH]c1ccccc21", "%", 130),
    ("CCOC(=O)C1=CN(C(=O)c2ccc(Cl)cc2)CC(C)c2c1[nH]c1ccccc21 (centres undefined)", "%", 155),
    ("CCOC(=O)C1=CN(C(=O)c2ccc(F)cc2)CCc2c1[nH]c1ccccc21", "%", 100),
    ("CCOC(=O)C1=CN(C(=O)c2ccc(Cl)cc2)CC(C)(C)c2c1[nH]c1ccccc21", "%", 190),
    ("CCOC(=O)C1=CN(C(=O)c2ccc(F)cc2)CC(C)c2c1[nH]c1ccccc21 (centres undefined)", "%", 160),
    ("CC(C)OC(=O)C1=CN(C(=O)c2ccc(F)c(F)c2)CC(C)(C)c2c1[nH]c1ccccc21 [TUROFEXORATE ISOPROPYL]", "%", 149),
    ("CC(C)OC(=O)C1=CN(C(=O)c2ccc(F)cc2)CC(C)(C)c2c1[nH]c1ccccc21", "%", 146),
    ("CCOC(=O)C1=CN(C(=O)c2ccc(F)c(F)c2)CC(C)c2c1[nH]c1ccccc21 (centres undefined)", "%", 170),
    ("CCOC(=O)C1=CN(C(=O)c2ccc(OC)cc2)CC(C)c2c1[nH]c1ccccc21 (centres undefined)", "%", 145),
]

* * *

method: Half life in CD rat at 3 mg/kg, iv
Type: ADME, organism-based
Design: dose 3 mg/kg, route intravenous
measurementSetup: in vivo

# molecule, half-life (h)
measured = [
    ("CC(C)OC(=O)C1=CN(C(=O)c2ccc(F)c(F)c2)CC(C)(C)c2c1[nH]c1ccccc21 [TUROFEXORATE ISOPROPYL]", 40.1),
]
